For Prothrombin (Bos taurus), measured Ki is reported for the entries below.
// units = nM; emit number, no label

**Query** Please give measured Ki of the following entry: `N=C(N)c1cccc(C[C@H](NS(=O)(=O)c2ccc3ccccc3c2)C(=O)N2CCC[C@H](C(=O)OCc3ccccc3)C2)c1`
**Result** 300

**Query** State its Ki: `CNC(=O)[C@H]1CCCN(C(=O)[C@H](Cc2cccc(C(=N)N)c2)NS(=O)(=O)c2c(C(C)C)cc(C(C)C)cc2C(C)C)C1`
**Result** 230

**Query** Report measured Ki; entry is `COC(=O)[C@H]1CCCN(C(=O)[C@H](Cc2cccc(C(=N)N)c2)NS(=O)(=O)c2ccc3ccccc3c2)C1`
**Result** 151

**Query** Tell me Ki reported for `CS(=O)(=O)N1CCN(C(=O)[C@@H](N)Cc2cccc(C(=N)N)c2)CC1`
**Result** 13000

**Query** Give a short answer stating reported Ki for `CC(C)(C)c1ccc(S(=O)(=O)N[C@@H](Cc2cccc(C(=N)N)c2)C(=O)N2CCN(S(C)(=O)=O)CC2)cc1` .
**Result** 4.27

**Query** Report measured Ki; entry is `N=C(N)c1cccc(C[C@H](NS(=O)(=O)c2ccc3ccccc3c2)C(=O)N2CCc3ccccc3C2)c1`
**Result** 37

**Query** Given `CC1CCN(C(=O)[C@H](Cc2cccc(C(=N)N)c2)NS(=O)(=O)c2ccc3c(c2)C(=O)c2ccccc2C3=O)CC1` , respond with its Ki.
**Result** 26

**Query** Determine its reported Ki: `COC(=O)C1CCN(C(=O)[C@H](Cc2cccc(C(=N)N)c2)NS(=O)(=O)c2c(C)cc(C)cc2C)CC1`
**Result** 180
